- TGT: SHV-5 β-lactamase (Klebsiella pneumoniae, UniProt P0A3M1)
- Construct: The β-lactamases were extracted by four cycles of freezing and thawing followed by centrifugation; endogenous in cells; host or cells: Escherichia coli cells containing SHV-5 (crude freeze-thaw extract)
- Sequence (P0A3M1 22-286): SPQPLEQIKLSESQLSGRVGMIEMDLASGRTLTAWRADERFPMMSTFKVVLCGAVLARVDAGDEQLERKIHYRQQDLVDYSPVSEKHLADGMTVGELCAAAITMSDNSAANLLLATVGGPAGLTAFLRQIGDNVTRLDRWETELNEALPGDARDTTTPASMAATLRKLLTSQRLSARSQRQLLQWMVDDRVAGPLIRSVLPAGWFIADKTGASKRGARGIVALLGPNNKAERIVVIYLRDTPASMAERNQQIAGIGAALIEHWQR
- PROCEDURE_DETAILS: biochemical
- Format: biochemical, Escherichia coli
- EXPERIMENTAL_CONTEXT: crude enzyme extract, 10 min preincubation at 37° C., nitrocefin 100 μM, PBS pH 7.0; read-out: SHV-5 IC50 Range
What IC50 was measured for each of the following?

Asked: What measured IC50 goes with CC(CO)Oc1cccc(CC(=O)N[C@@H](Cc2cccc(C(=O)O)c2)B(O)O)c1 (stereo partly drawn) [Example 32] ?
Given back: < 100 nM

Asked: What measured IC50 goes with O=C(Cc1cccc(O)c1)N[C@@H](Cc1cccc(C(=O)O)c1)B(O)O [Example 22] ?
Given back: < 100 nM

Asked: What measured IC50 goes with O=C(Cc1cccc(Cl)c1)N[C@@H](Cc1cccc(C(=O)O)c1)B(O)O [Example 3] ?
Given back: < 100 nM

Asked: What measured IC50 goes with O=C(Cc1cccs1)N[C@@H](Cc1cccc(C(=O)O)c1)B(O)O [Example 1] ?
Given back: < 100 nM

Asked: What measured IC50 goes with COc1ccc(CC(=O)N[C@@H](Cc2cccc(C(=O)O)c2)B(O)O)cc1OC [Example 11] ?
Given back: < 100 nM

Asked: What measured IC50 goes with COc1cccc(CC(=O)N[C@@H](Cc2cccc(C(=O)O)c2)B(O)O)c1 [Example 2] ?
Given back: < 100 nM

Asked: What measured IC50 goes with COc1ccc(CC(=O)N[C@@H](Cc2cccc(C(=O)O)c2)B(O)O)c(Br)c1 [Example 26] ?
Given back: 100 to 1000 nM

Asked: What measured IC50 goes with Cn1c(CC(=O)N[C@@H](Cc2cccc(C(=O)O)c2)B(O)O)cc2ccccc21 [Example 14] ?
Given back: < 100 nM

Asked: What measured IC50 goes with O=C(CCc1cccs1)N[C@@H](Cc1cccc(C(=O)O)c1)B(O)O [Example 10] ?
Given back: > 1000 nM
